# MEASURED_TARGET: T1, CD3ε homodimer protein (human, UniProt P07766 23-126, limits assumed, sulfo-tag or biotin label in some ECL assays)
# T1 construct: also called human CD3ε homodimer protein; CD3 (CD3ε)
# T1 sequence (P07766 23-126 limits assumed): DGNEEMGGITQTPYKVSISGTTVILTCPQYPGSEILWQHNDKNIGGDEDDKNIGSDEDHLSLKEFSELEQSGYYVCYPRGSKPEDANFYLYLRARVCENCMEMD
# METHOD: SPR, CD3ε homodimer on chip;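 note: biacore SPR with antibody variants flowed as analyte over amine-coupled CD3ε homodimer on a CM chip, bound amount of each single-residue H chain variant over that of parent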
READOUT: ratio of amounts bound vs CE115HA000
Keep the answer to the number alone.

Known results for binders:
Reported ratio of amounts bound vs CE115HA000 for CE115HA000 Q50E (antibody, name in Kabat numbering, V domains shown) VH: QVQLVESGGGVVQPGRSLRLSCAASGFTFSNAWMHWVRQAPGKGLEWVAEIKAKSNNYATYYAESVKGRFTISRDDSKNSLYLQMNSLKTEDTAVYYCRYVHYGAYYGVDAWGQGTTVTVSS VL: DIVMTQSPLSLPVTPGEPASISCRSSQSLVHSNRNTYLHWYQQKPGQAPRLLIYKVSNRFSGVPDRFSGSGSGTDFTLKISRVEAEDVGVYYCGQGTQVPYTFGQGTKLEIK was 0.26

Reported ratio of amounts bound vs CE115HA000 for CE115HA000 G98T (antibody, name in Kabat numbering, V domains shown) VH: QVQLVESGGGVVQPGRSLRLSCAASGFTFSNAWMHWVRQAPGKGLEWVAQIKAKSNNYATYYAESVKGRFTISRDDSKNSLYLQMNSLKTEDTAVYYCRYVHYTAYYGVDAWGQGTTVTVSS VL: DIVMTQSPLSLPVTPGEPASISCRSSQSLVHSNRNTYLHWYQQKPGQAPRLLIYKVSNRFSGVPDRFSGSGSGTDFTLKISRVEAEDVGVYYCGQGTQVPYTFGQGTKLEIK was 1

Item: CE115HA000 R16E (antibody, name in Kabat numbering, V domains shown) VH: QVQLVESGGGVVQPGESLRLSCAASGFTFSNAWMHWVRQAPGKGLEWVAQIKAKSNNYATYYAESVKGRFTISRDDSKNSLYLQMNSLKTEDTAVYYCRYVHYGAYYGVDAWGQGTTVTVSS VL: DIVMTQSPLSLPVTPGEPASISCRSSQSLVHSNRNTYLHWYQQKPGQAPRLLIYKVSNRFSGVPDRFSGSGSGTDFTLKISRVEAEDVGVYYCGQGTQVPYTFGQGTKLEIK | ratio of amounts bound vs CE115HA000: 0.88

More entries:
// CE115HA000 G98P (antibody, name in Kabat numbering, V domains shown) VH: QVQLVESGGGVVQPGRSLRLSCAASGFTFSNAWMHWVRQAPGKGLEWVAQIKAKSNNYATYYAESVKGRFTISRDDSKNSLYLQMNSLKTEDTAVYYCRYVHYPAYYGVDAWGQGTTVTVSS VL: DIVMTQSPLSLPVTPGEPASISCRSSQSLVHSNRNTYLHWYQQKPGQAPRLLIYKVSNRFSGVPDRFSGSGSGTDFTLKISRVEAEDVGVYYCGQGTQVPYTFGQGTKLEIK : ratio of amounts bound vs CE115HA000 value = 1.03

# binder CE115HA000 N53I (antibody, name in Kabat numbering, V domains shown) VH: QVQLVESGGGVVQPGRSLRLSCAASGFTFSNAWMHWVRQAPGKGLEWVAQIKAKSINYATYYAESVKGRFTISRDDSKNSLYLQMNSLKTEDTAVYYCRYVHYGAYYGVDAWGQGTTVTVSS VL: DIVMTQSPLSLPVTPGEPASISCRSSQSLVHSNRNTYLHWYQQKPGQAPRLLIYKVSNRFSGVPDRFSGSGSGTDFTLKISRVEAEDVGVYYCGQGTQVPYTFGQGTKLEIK ; its ratio of amounts bound vs CE115HA000 = 0.68
